B1: IFRG15 (parent)
chain: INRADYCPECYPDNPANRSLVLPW

# Variants of: B1
# MEASUREMENT_PROTOCOL: protein stability index of a GFP-peptide fusion (GPS, HEK-293T) (PSI 1-6); higher = more stable;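 note: lentivirally expressed fusions sorted by FACS into six bins by GFP to DsRed ratio, PSI derived from sequencing read proportions per bin multiplied by bin number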
# RECORDED_CONDITIONS: c terminus: a fixed tail appended
RECORDED_ENDPOINT: protein stability index

Solved cases (2 shown):
[[record]]
change = "R18S"
observed_measurement = 2.27

[[record]]
change = "P12V"
observed_measurement = 1.84


Please look at the items below and tell me protein stability index for each one, in order.
1. D5F
2. N17G
3. L22W
4. P15M
5. Y11M
6. S19D

**A:**
1. 2.03
2. 2.53
3. 1.65
4. 2.19
5. 2.15
6. 2.3
